Biological target: T1, D-Abl SH2 domain (synthetic mirror-image SH2 domain of human BCR::ABL1) (human, UniProt P00519-2 141-240, all residues in D-configuration)
T1 chain: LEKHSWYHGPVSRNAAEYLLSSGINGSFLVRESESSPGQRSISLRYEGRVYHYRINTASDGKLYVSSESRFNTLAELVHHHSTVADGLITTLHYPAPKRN
Experiment: ITC
Recorded Endpoint: Kd
Could you kindly put the unit after your number?

INPUT: Record request: Kd value, item L-monobody DAM30.1 (recombinant) (designed binder) MAASSVPTKLEVVAATPTSLLISWDAPAVTVDHYVITYGETGGGWYGQEFEVPGSKSTATISGLKPGVDYTITVYAYEFYSGEYSHFSPISINYRT
OUTPUT: 90.3 nM

INPUT: Record request: Kd value, item L-monobody DAM28 (recombinant) (designed binder) MAASSVPTKLEVVAATPTSLLISWDAPAVTVDHYVITYGETGGNSPVQEFTVPGSKSTATISGLKPGVDYTITVYAYEYWEYEYSSYSPISINYRT
OUTPUT: 58.9 nM

INPUT: Record request: Kd value, item L-monobody DAM30.2 (recombinant) (designed binder) MAASSVPTKLEVVAATPTSLLISWDAPAVTVDHYVITYGETGAYVSGPQEFTVPGSKSTATISGLKPGVDYTITVYAYEFYSGEYSHFSPISINYRT
OUTPUT: 189 nM

INPUT: Record request: Kd value, item L-monobody DAM26 (recombinant) (designed binder) MAASSVPTKLEVVAATPTSLLISWDAPAVTVDHYVITYGETGGNSPVQEFTVPGSKSTATISGLKPGVDYTITVYAYEFYSGEYSHFSPISINYRT
OUTPUT: 249 nM
